Where do the numbers come from? From ChEMBL document CHEMBL1201862.

- Tested on: NCI/ADR-RES
- assay.info: NCI tumour cell line growth inhibition, 48 h
Active and inactive are the calls of the source. Rule as the data show it: active = GI50 up to about 1.1 µM and inactive = higher.
GI50 overview

Examples with answers:
compound | GI50
COC1CC(OC2CCC3(C)C(CCC45CCC(C6=CC(=O)OC6)C(C)(CCC43)C5=O)C2)OC(C)C1O (centres undefined) | 32.5 µM (inactive)
CCOC(=O)N1CCC2(CC1)CC(=O)N(Nc1ccccc1)C2=O | > 100 µM (inactive)
CC(CCC#N)(CCC#N)C(=O)CC(O)(C(F)(F)F)C(F)(F)F | 5.94 µM (inactive)

In: Param item = "CCCCCCc1cc2cc(C(=O)Nc3cccc(C(F)(F)F)c3)c(=N)oc2cc1O" ; retrieve measured GI50.
Out: 2.06 µM (inactive)

----------
GI50 overview
- Tested on: SNB-75
- assay.info: NCI tumour cell line growth inhibition, 48 h
Calls of active or inactive are those of the source. Cut-off read from the data, not from the text of the source: active = GI50 up to about 1.1 µM and inactive = higher. Where a SMILES comes first, the peptide text is derived from it. The star is where a group is joined. Fmoc = O=C(OCC1c2ccccc2-c2ccccc21)*; Boc = CC(C)(C)OC(=O)*

Examples with answers:
compound | GI50
COc1cc2c(c(OC)c1OC)-c1ccc(SC)c(=O)cc1[C@@H](NCc1cccc(C#N)c1)CC2 | 0.00516 µM (active)
OC(c1ccc(Br)cc1)(c1cccs1)C1CC1 (stereo unspecified) | 25.8 µM (inactive)
CC(C)(C)OC(=O)NCCCCC(NC(=O)C(Cc1c[nH]c2ccccc12)NC(=O)OCC1c2ccccc2-c2ccccc21)C(=O)O (stereo unspecified) (Fmoc-Trp-Lys(Boc)-OH; configuration not given here) | 55 µM (inactive)
CC(C)CC(=O)CC(O)C(Cl)(Cl)Cl (stereo unspecified) | > 100 µM (inactive)
COC(O)C12OC3CO[Si](C(C)C)(C(C)C)O[Si](C(C)C)(C(C)C)OC3C1Oc1nc(=O)ccn12 (stereo unspecified) | 26.2 µM (inactive)
CCOC(=O)/C(O)=C(/C(=O)OC)c1ccc(Cl)cc1 | > 100 µM (inactive)
O=C1NC(=S)NC1C(Cc1ccccc1)c1ccco1 (stereo unspecified) | > 100 µM (inactive)
c1ccc(NNC2=NCCN2)cc1 | > 100 µM (inactive)

In: Please provide the recorded GI50 for "CCCCCCSCC/C(C)=N\OC" , tested on SNB-75.
Out: > 100 µM (inactive)

In: Proceed to O=C1CCC2(O)c3ccccc3C2Cc2ccccc21 (stereo unspecified)
Out: 63.8 µM (inactive)

In: Proceed to CCOc1ccc(NCC2CC/C(=C\c3ccc(Cl)cc3)C2=O)cc1 (stereo unspecified)
Out: > 44.5 µM (inactive)

----------
- Test system: CAKI-1
- assay.info: NCI tumour cell line growth inhibition, 48 h
Activity calls are given as the source filed them. Rule as the data show it: active = GI50 up to about 1.1 µM and inactive = higher.
Form entry, call: pick from active, inactive

Look over these answered cases.
molecule | class.name
N#Cc1c(NC(=S)NCc2ccccc2)sc2c1CCN(N1CCc3c(sc(NC(=S)NCc4ccccc4)c3C#N)C1)C2 | inactive
COc1ccc2c(c1)[n+]([O-])c(C(=O)C/C(=N/OCCCc1ccccc1)C(=O)NC13CC4CC(CC(C4)C1)C3)c(C)[n+]2[O-] | inactive
CCOP(=O)(OCC)C(Nc1ccc(F)cc1)c1cccc([N+](=O)[O-])c1 (configuration not stated) | inactive
CCOC(=O)COC1=Nc2cc(OC)c(OC)c3nc(Cl)cc(c23)C1=O | inactive
O=C(O)c1ccccc1-c1ccccc1C(=O)c1ccccc1 | inactive
O=c1/c(=C/c2ccc3c(c2)OCO3)sc2nnc(-c3ccco3)n12 | inactive
CCOC(=O)NC(=O)c1cn(CC(=O)NCC(=O)NCC(=O)NCCCN2CCN(CCCNC(=O)CNC(=O)CNC(=O)Cn3cc(C(=O)NC(=O)OCC)c(=O)[nH]c3=O)CC2)c(=O)[nH]c1=O | inactive
Cc1ccc(Cc2c(=O)[nH]nc3ccccc23)cc1 | inactive

In: // return assay outcome for "CCCCc1ccc(N2C(=O)c3cc([N+](=O)[O-])cnc3S2(=O)=O)cc1"
Out: inactive

In: Proceed to S=C(N/N=C/c1ccccc1)NC1CC(c2ccccc2)Oc2ccccc21 (configuration not stated)
Out: inactive

In: Proceed to Cc1nnc(N/N=C(/C(=O)C(C#N)c2ccc(Cl)cc2)C(C#N)c2ccc(Cl)cc2)n1N (configuration not stated)
Out: inactive

In: Proceed to "Cc1n(-c2ccccc2)c2c([n+]1Cc1ccc([N+](=O)[O-])cc1)C(=O)c1ccccc1C2=O"
Out: inactive

In: Proceed to CCOC(=O)[C@H]1Nc2ccc([N+](=O)[O-])cc2C2c3ccccc3CC21 (some centres not stated)
Out: inactive

In: Proceed to "CCOC(=O)C(=CNc1ccc(F)c(F)c1)C(=O)OCC"
Out: inactive

In: Proceed to "Cc1ccc(O)c(C(=O)/C=C/c2ccccc2)c1"
Out: inactive

In: Proceed to "CN(C)CCSc1cc(-c2ccccc2)c2ccccc2n1"
Out: inactive

In: Proceed to "COc1ccc(CNc2cc(OC)c(OC)c(OC)c2)cc1"
Out: inactive

In: Proceed to "O=[N+]([O-])c1cc(Cl)ccc1S(=O)(=O)c1ccc(Cl)cc1[N+](=O)[O-]"
Out: inactive

In: Proceed to "Cc1c(O)c(=O)ccn1CCc1ccc(O)cc1"
Out: inactive

In: Proceed to "COc1ccc(/C=N/N=C(\N)NO)c(OC)c1C"
Out: inactive

In: Proceed to C=C(C)C1CC2C(C)=C(OC(C)=O)C1n1c(=O)c3cc4ccccc4cc3c(=O)n12 (configuration not stated)
Out: inactive

In: Proceed to CC1=CC(C)C/C=C/C2C3OC3(C)C(C)C3C(Cc4c[nH]c5ccccc45)NC(=O)C23C(=O)C=CC(=O)C1O (configuration not stated)
Out: active

In: Proceed to "CCCCCCc1cc2cc(C(=O)Nc3cccc(C(F)(F)F)c3)c(=N)oc2cc1O"
Out: inactive

----------
- Test system: SK-OV-3
- assay.info: NCI tumour cell line growth inhibition, 48 h
Active and inactive are the calls of the source. No stated cut-off is given here; in the data, active = GI50 up to about 1.1 µM and inactive = higher.
GI50 overview

Examples with answers:
molecule | GI50
CC(=O)O[C@H]1CC[C@@]2(C)C(=CC[C@@H]3[C@@H]2CC[C@]2(C)NC(=O)/C(=C\c4ccccc4)C[C@@H]32)C1 | 20.9 µM (inactive)
COc1ccc(CC[N+]2(C)COc3cc4oc(=O)cc(C)c4cc3C2)cc1OC (configuration not stated) | > 100 µM (inactive)
c1ccc(C2C3=C(CCCC3)Nc3nnnn32)cc1 (configuration not stated) | > 100 µM (inactive)
COC(=O)[C@]12CSC[C@H]1C[C@H](c1cccc3ccccc13)N2 | > 100 µM (inactive)
CCCCCCCCCCCCCCCc1ccc(OCC(O)CO)cc1 (configuration not stated) | 99.3 µM (inactive)
Brc1ccc(-c2nnc(-c3nn(-c4ccccc4)c4nc5ccccc5nc34)o2)cc1 | > 100 µM (inactive)
C[C@]12CC=CC(=O)[C@@]1(C)CCC(=O)C2 | > 100 µM (inactive)
CCOC(=O)C1(C(=O)OCC)OC(C)=NC1(C(=O)OC)C(=O)OC | > 100 µM (inactive)

In: Param item = "CN1/C(=N\c2ccccc2)S/C1=N/c1ccccc1" ; retrieve measured GI50.
Out: > 100 µM (inactive)

In: Proceed to "Cc1ccc(O)c(C(=O)/C=C/c2ccccc2)c1"
Out: > 100 µM (inactive)

In: Proceed to "SC1=NC2(CCCCCC2)NN1c1ccccc1"
Out: > 100 µM (inactive)

In: Proceed to "CN(C)CC/C=C1\c2ccccc2Sc2ccc(Cl)cc21"
Out: 16.3 µM (inactive)

----------
- Test system: ACHN
- assay.info: NCI tumour cell line growth inhibition, 48 h
The source made the active and inactive calls. No stated cut-off is given here; in the data, active = GI50 up to about 1.1 µM and inactive = higher.
test.readout: GI50

In: Please provide the recorded GI50 for "CCOC(=O)c1cn(CC)c2cc3c(cc2c1=O)CCS3(=O)=O" , tested on ACHN.
Out: > 100 µM (inactive)

In: Proceed to "Cc1ccc(C(=O)/C=C2\Nc3cccnc3NC2=O)cc1"
Out: > 100 µM (inactive)

In: Proceed to "COc1ccc2c(=O)c([Se]c3coc4cc(OC)ccc4c3=O)coc2c1"
Out: 72.1 µM (inactive)

In: Proceed to COC1CC(OC2CCC3(C)C(CCC45CCC(C6=CC(=O)OC6)C(C)(CCC43)C5=O)C2)OC(C)C1O (centres undefined)
Out: 22.1 µM (inactive)

In: Proceed to "COc1c2ccoc2cc2oc(=O)ccc12"
Out: > 100 µM (inactive)

In: Proceed to "COc1ccc(C[P+]2(c3ccccc3)CCCCC2)cc1.O=[N+]([O-])c1ccc(C[P+]2(c3ccccc3)CCCCC2)cc1.[O-][Cl+3]([O-])([O-])[O-].[O-][Cl+3]([O-])([O-])[O-]"
Out: > 100 µM (inactive)

In: Proceed to CN1C(=O)N(c2ccccc2)C2(CCN(CC3COc4ccccc4O3)CC2)C1=O (centres undefined)
Out: > 100 µM (inactive)
